- Assay type: in vivo, human
- ASSAY_CONDITIONS: human, whole blood, oral, 0.058 mg/kg

SMILES_STR	UNIT_ABBREV	CL/F
C=CC[C@@H]1/C=C(\C)C[C@H](C)C[C@H](OC)[C@H]2O[C@@](O)(C(=O)C(=O)N3CCCC[C@H]3C(=O)O[C@H](/C(C)=C/[C@@H]3CC[C@@H](O)[C@H](OC)C3)[C@H](C)[C@@H](O)CC1=O)[C@H](C)C[C@@H]2OC	L/h/kg	0.461
